assay: Specific activity of purified CHI, absorbance decrease at 384 nm, hesperetin chalcone; assay type: biochemical; conditions: purified CHI in 50 mM PBS, 100 μM substrate, 25° C. Also: unit not given here.
experimental endpoint: Specific activity, Hesperetin chalcone

CHI4: Chalcone isomerase from Acetoanaerobium noterae, access no. WP_079589066.1 (protein, listed as Acetoanaerobium noterae) ADFEFNPMRSLIYVDVVKEDYRHMLKHWLYRHHIPDSISQFGPYVTKYAFYPALPTPPEGDRFGTIRMQLTEHYWTVNPFTSNFKNKAFTEFFPIDILKWQGNIPDDSKVAALEGEEVVKLEGDDARASGGDNGCPPFIFAFVPICWEEDFKGSQRTVEDGPNYRWQFVMKYPEGVTMKEGDKWFYEEMIPKFKDMPDVLRILSSKIIQQVNGCPYHRVVEMWFNCPSAWYRSAVEKAKEIKKPSWAKYDVFPYLKPKFEIASLFLTDIAESDNYSQYRGYITMR    58.5

Now look at this one.
## Task Quickly give me recorded Specific activity, Hesperetin chalcone for CHIera Mut12: Chalcone isomerase variant 12 from Eubacterium ramulus, genetically engineered (protein, listed as Eubacterium ramulus) MADFKFEPMRSLIYVDCVSEDYRPKLQRWIYKVHIPDSISKFEPYVTKYAFYPSFPIPPQGDRFGYARMQLTEHHWLVSPLDPRLEINAIAETFPMDVLVWQGQIPAAAHTDAQIDSDGDAARAARKSNNAEGNPFIFAFLPMWWEKDLKGKGRTIEDGANYRFNMTIGFPEGVDKAEGEKWLFEKVVPILQAAPECTRVLASAVKKDINGCVMDWVLEIWFENQSGWYKVMVDDMKALEKPSWAQQDAFPFLKPYHNVCSAAVADYTPSNNLANYRGYITMR
## Result 24.9
